- assayDetails: wn = mass fraction of the nth substance listed
- experimentalParameters: 333.15 K; 101 kPa; Liquid; Concentric cylinders viscometry; w1 = 0.15
endpoint: viscosity (mPa·s)

[[record]]
compound = "OCCNCCO [diethanolamine] + O"
recordednumber = 0.7178

[[record]]
compound = "CC(O)CN (centres undefined) [1-amino-2-propanol] + O"
recordednumber = 0.75

[[record]]
compound = "CC(O)CNCC(C)O (centres undefined) [N-(2-hydroxypropyl)-2-hydroxy-1-propanamine] + O"
recordednumber = 0.8324

[[record]]
compound = "CC(O)CN(CC(C)O)CC(C)O (centres undefined) [triisopropanolamine] + O"
recordednumber = 0.7754


###

- assayDetails: wn = mass fraction of the nth substance listed
- experimentalParameters: 308.15 K; 101 kPa; Liquid; Concentric cylinders viscometry; w1 = 0.1
endpoint: viscosity (mPa·s)

[[record]]
molecule = "CC(O)CN (centres undefined) [1-amino-2-propanol] + O"
measurementunits = "mPa·s"
recordednumber = 1.027

[[record]]
molecule = "OCCNCCO [diethanolamine] + O"
measurementunits = "mPa·s"
recordednumber = 1.013

[[record]]
molecule = "CC(O)CN(CC(C)O)CC(C)O (centres undefined) [triisopropanolamine] + O"
measurementunits = "mPa·s"
recordednumber = 1.068

[[record]]
molecule = "CC(O)CNCC(C)O (centres undefined) [N-(2-hydroxypropyl)-2-hydroxy-1-propanamine] + O"
measurementunits = "mPa·s"
recordednumber = 1.093


###

- assayDetails: refractive index (Na D-line) (dimensionless); wn = mass fraction of the nth substance listed
- experimentalParameters: 303.15 K; 101 kPa; Liquid; Standard Abbe refractometry; w1 = 0.05
endpoint: refractive index

[[record]]
molecule = "OCCNCCO [diethanolamine] + O"
endpoint = "refractive index"
recordednumber = 1.33875

[[record]]
molecule = "CC(O)CNCC(C)O (centres undefined) [N-(2-hydroxypropyl)-2-hydroxy-1-propanamine] + O"
endpoint = "refractive index"
recordednumber = 1.33988

[[record]]
molecule = "CC(O)CN(CC(C)O)CC(C)O (centres undefined) [triisopropanolamine] + O"
endpoint = "refractive index"
recordednumber = 1.34001

[[record]]
molecule = "CC(O)CN (centres undefined) [1-amino-2-propanol] + O"
endpoint = "refractive index"
recordednumber = 1.33825


###

- assayDetails: refractive index (Na D-line) (dimensionless); wn = mass fraction of the nth substance listed
- experimentalParameters: 308.15 K; 101 kPa; Liquid; Standard Abbe refractometry; w1 = 0.05
endpoint: refractive index

[[record]]
compound = "OCCNCCO [diethanolamine] + O"
recordednumber = 1.33801

[[record]]
compound = "CC(O)CN(CC(C)O)CC(C)O (centres undefined) [triisopropanolamine] + O"
recordednumber = 1.33922

[[record]]
compound = "CC(O)CN (centres undefined) [1-amino-2-propanol] + O"
recordednumber = 1.33749

[[record]]
compound = "CC(O)CNCC(C)O (centres undefined) [N-(2-hydroxypropyl)-2-hydroxy-1-propanamine] + O"
recordednumber = 1.33919


###

- assayDetails: refractive index (Na D-line) (dimensionless); wn = mass fraction of the nth substance listed
- experimentalParameters: 333.15 K; 101 kPa; Liquid; Standard Abbe refractometry; w1 = 0.05
endpoint: refractive index

[[record]]
molecule = "CC(O)CNCC(C)O (centres undefined) [N-(2-hydroxypropyl)-2-hydroxy-1-propanamine] + O"
endpoint = "refractive index"
recordednumber = 1.33467

[[record]]
molecule = "OCCNCCO [diethanolamine] + O"
endpoint = "refractive index"
recordednumber = 1.3334

[[record]]
molecule = "CC(O)CN (centres undefined) [1-amino-2-propanol] + O"
endpoint = "refractive index"
recordednumber = 1.3328

[[record]]
molecule = "CC(O)CN(CC(C)O)CC(C)O (centres undefined) [triisopropanolamine] + O"
endpoint = "refractive index"
recordednumber = 1.33481


###

- assayDetails: refractive index (Na D-line) (dimensionless); wn = mass fraction of the nth substance listed
- experimentalParameters: 323.15 K; 101 kPa; Liquid; Standard Abbe refractometry; w1 = 0.25
endpoint: refractive index

[[record]]
compound = "CC(O)CN(CC(C)O)CC(C)O (centres undefined) [triisopropanolamine] + O"
endpoint = "refractive index"
recordednumber = 1.36532

[[record]]
compound = "CC(O)CN (centres undefined) [1-amino-2-propanol] + O"
endpoint = "refractive index"
recordednumber = 1.36109

[[record]]
compound = "OCCNCCO [diethanolamine] + O"
endpoint = "refractive index"
recordednumber = 1.36557

[[record]]
compound = "CC(O)CNCC(C)O (centres undefined) [N-(2-hydroxypropyl)-2-hydroxy-1-propanamine] + O"
endpoint = "refractive index"
recordednumber = 1.36423


###

- assayDetails: refractive index (Na D-line) (dimensionless); wn = mass fraction of the nth substance listed
- experimentalParameters: 308.15 K; 101 kPa; Liquid; Standard Abbe refractometry; w1 = 0.25
endpoint: refractive index

[[record]]
molecule = "CC(O)CN(CC(C)O)CC(C)O (centres undefined) [triisopropanolamine] + O"
recordednumber = 1.36869

[[record]]
molecule = "OCCNCCO [diethanolamine] + O"
recordednumber = 1.36847

[[record]]
molecule = "CC(O)CN (centres undefined) [1-amino-2-propanol] + O"
recordednumber = 1.36461

[[record]]
molecule = "CC(O)CNCC(C)O (centres undefined) [N-(2-hydroxypropyl)-2-hydroxy-1-propanamine] + O"
recordednumber = 1.36736


###

- assayDetails: wn = mass fraction of the nth substance listed
- experimentalParameters: 328.15 K; 101 kPa; Liquid; Vibrating tube method; w1 = 0.05
endpoint: mass density (kg/m3)

[[record]]
molecule = "OCCNCCO [diethanolamine] + O"
measurementunits = "kg/m3"
recordednumber = 991.746

[[record]]
molecule = "CC(O)CN(CC(C)O)CC(C)O (centres undefined) [triisopropanolamine] + O"
measurementunits = "kg/m3"
recordednumber = 988.96

[[record]]
molecule = "CC(O)CN (centres undefined) [1-amino-2-propanol] + O"
measurementunits = "kg/m3"
recordednumber = 986.722

[[record]]
molecule = "CC(O)CNCC(C)O (centres undefined) [N-(2-hydroxypropyl)-2-hydroxy-1-propanamine] + O"
measurementunits = "kg/m3"
recordednumber = 988.852


###

- assayDetails: wn = mass fraction of the nth substance listed
- experimentalParameters: 308.15 K; 101 kPa; Liquid; Vibrating tube method; w1 = 0.1
endpoint: mass density (kg/m3)

[[record]]
molecule = "CC(O)CN (centres undefined) [1-amino-2-propanol] + O"
endpoint = "mass density"
recordednumber = 995.747

[[record]]
molecule = "CC(O)CN(CC(C)O)CC(C)O (centres undefined) [triisopropanolamine] + O"
endpoint = "mass density"
recordednumber = 1000.83

[[record]]
molecule = "OCCNCCO [diethanolamine] + O"
endpoint = "mass density"
recordednumber = 1005.77

[[record]]
molecule = "CC(O)CNCC(C)O (centres undefined) [N-(2-hydroxypropyl)-2-hydroxy-1-propanamine] + O"
endpoint = "mass density"
recordednumber = 1000.19


###

- assayDetails: wn = mass fraction of the nth substance listed
- experimentalParameters: 298.15 K; 101 kPa; Liquid; Concentric cylinders viscometry; w1 = 0.05
endpoint: viscosity (mPa·s)

[[record]]
molecule = "OCCNCCO [diethanolamine] + O"
endpoint = "viscosity"
measurementunits = "mPa·s"
recordednumber = 1.059

[[record]]
molecule = "CC(O)CN(CC(C)O)CC(C)O (centres undefined) [triisopropanolamine] + O"
endpoint = "viscosity"
measurementunits = "mPa·s"
recordednumber = 1.083

[[record]]
molecule = "CC(O)CNCC(C)O (centres undefined) [N-(2-hydroxypropyl)-2-hydroxy-1-propanamine] + O"
endpoint = "viscosity"
measurementunits = "mPa·s"
recordednumber = 1.117

[[record]]
molecule = "CC(O)CN (centres undefined) [1-amino-2-propanol] + O"
endpoint = "viscosity"
measurementunits = "mPa·s"
recordednumber = 1.088


###

- assayDetails: wn = mass fraction of the nth substance listed
- experimentalParameters: 298.15 K; 101 kPa; Liquid; Vibrating tube method; w1 = 0.25
endpoint: mass density (kg/m3)

[[record]]
molecule = "CC(O)CN (centres undefined) [1-amino-2-propanol] + O"
endpoint = "mass density"
recordednumber = 1002.46

[[record]]
molecule = "OCCNCCO [diethanolamine] + O"
endpoint = "mass density"
recordednumber = 1027.11

[[record]]
molecule = "CC(O)CN(CC(C)O)CC(C)O (centres undefined) [triisopropanolamine] + O"
endpoint = "mass density"
recordednumber = 1015.04

[[record]]
molecule = "CC(O)CNCC(C)O (centres undefined) [N-(2-hydroxypropyl)-2-hydroxy-1-propanamine] + O"
endpoint = "mass density"
recordednumber = 1014.1


###

- assayDetails: wn = mass fraction of the nth substance listed
- experimentalParameters: 318.15 K; 101 kPa; Liquid; Vibrating tube method; w1 = 0.2
endpoint: mass density (kg/m3)

[[record]]
compound = "CC(O)CN (centres undefined) [1-amino-2-propanol] + O"
endpoint = "mass density"
measurementunits = "kg/m3"
recordednumber = 991.989

[[record]]
compound = "CC(O)CNCC(C)O (centres undefined) [N-(2-hydroxypropyl)-2-hydroxy-1-propanamine] + O"
endpoint = "mass density"
measurementunits = "kg/m3"
recordednumber = 1001.71

[[record]]
compound = "OCCNCCO [diethanolamine] + O"
endpoint = "mass density"
measurementunits = "kg/m3"
recordednumber = 1012.78

[[record]]
compound = "CC(O)CN(CC(C)O)CC(C)O (centres undefined) [triisopropanolamine] + O"
endpoint = "mass density"
measurementunits = "kg/m3"
recordednumber = 1002.41

